- test: Electrochemical oxidation potentials by cyclic voltammetry
- Assay type: physicochemical
- experimentalSetup: glassy carbon electrode, vs Ag/Ag+, acetonitrile, 0.1 M TBABF4
reportedMetric: Electrooxidation potential (V)
Only the number, expressed in V, is required.

Here's what some known entries look like.
compound: CCOC(=O)COC(=O)C1=C(C)NC(C)=C(C(=O)OCC(=O)OCC)C1c1ccc[n+](CC(=O)c2ccccc2)c1
unitOfMeasure: V
Electrooxidation potential: 1.68
//
compound: CCOC(=O)COC(=O)C1=C(C)NC(C)=C(C(=O)OCC(=O)OCC)C1c1cc[n+](CC(=O)c2ccccc2)cc1
unitOfMeasure: V
Electrooxidation potential: 1.70
//
compound: CCOC(=O)COC(=O)C1=C(C)NC(C)=C(C(=O)OCC(=O)OCC)C1c1ccc[n+](C(C)C(=O)c2ccc(OCc3ccccc3)cc2)c1 (centres unmarked)
unitOfMeasure: V
Electrooxidation potential: 1.68
//
compound: CCOC(=O)COC(=O)C1=C(C)NC(C)=C(C(=O)OCC(=O)OCC)C1c1ccc[n+](CC(=O)c2ccc(OC)cc2)c1
unitOfMeasure: V
Electrooxidation potential: 1.78

--- query ---
// Electrooxidation potential value for "CCOC(=O)CC[n+]1cccc(C2C(C(=O)OCC(=O)OCC)=C(C)NC(C)=C2C(=O)OCC(=O)OCC)c1" : 1.69
